Molecular target: Sphingosine 1-phosphate receptor 3 (Homo sapiens)
Assay: S1P3 receptor antagonists, primary screen, cell-based (AID 485);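 further: cells challenged with S1P at its EC80 of 0.8 µM; blue over green emission ratio from cleaved BLA substrate after 4 h stimulation; 0% = S1P-stimulated wells and 100% = unstimulated DMSO-only wells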
Details: CHO S1P3 NFAT-BLA reporter, FRET fluorescence, antagonist mode; at 4.98 µM; hits give high values
The whole screen tested about 170,000 compounds, of which about 460 (0.27%) were called active. This is one part of a sample in which actives are shown more often than they occur.
measuredAttribute: inhibition (%)
The reply should contain only the number, in %.

compound: O=C(NCCCNc1ccc([N+](=O)[O-])cc1Cl)c1ccccc1F
testedSystem: Sphingosine 1-phosphate receptor 3 (Homo sapiens)
inhibition [%]: -0.7
--
compound: CC(CNS(=O)(=O)c1ccc(Br)cc1)CN(C)C (stereo unspecified)
testedSystem: Sphingosine 1-phosphate receptor 3 (Homo sapiens)
inhibition [%]: -2.53
--
compound: COc1ccc(N=C(C)c2sc3ccccc3c2O)cc1
testedSystem: Sphingosine 1-phosphate receptor 3 (Homo sapiens)
inhibition [%]: 6.44
--
compound: CCOC(=O)c1c(N)sc2c1CCCC2=O
testedSystem: Sphingosine 1-phosphate receptor 3 (Homo sapiens)
inhibition [%]: 8.9
--
compound: COc1ccccc1NC(=O)c1c(Br)cnn1C
testedSystem: Sphingosine 1-phosphate receptor 3 (Homo sapiens)
inhibition [%]: 2.9

// below: inhibition requested for another compound
Tell me its inhibition given CCOC(=O)c1c(C)[nH]c(C2=NNC(=NC(C)COC)SC2)c1C (stereo unspecified) as the entry.
-26
